Values from ChEMBL document CHEMBL1221232

system: Streptococcus pneumoniae; assay: Antibacterial activity against constitutive MLS-resistance Streptococcus pneumoniae 58 by broth microdilution method; type: functional
Collected MIC values appear next to each entry.

Solved cases below.
INPUT: Query: MIC; subject: CC[C@H]1OC(=O)[C@H](C)[C@@H](O[C@@H]2O[C@@H](C)C[C@](C)(OC)[C@H]2OC(=O)CCOCCOCCCc2ccc3c(c2)c(=O)c(C(=O)O)cn3CC)[C@H](C)[C@@H](O[C@@H]2O[C@H](C)C[C@H](N(C)C)[C@H]2O)[C@](C)(OC)C[C@@H](C)C(=O)[C@H](C)[C@H]2NC(=O)O[C@@]21C
OUTPUT: ≤ 0.125 µg/mL

INPUT: Query: MIC; subject: CC[C@H]1OC(=O)[C@H](C)[C@@H](O[C@H]2C[C@@](C)(OC)[C@@H](O)[C@H](C)O2)[C@H](C)[C@@H](O[C@@H]2O[C@H](C)C[C@H](N(C)C)[C@H]2O)[C@](C)(O)C[C@@H](C)CN(C)[C@H](C)[C@@H](O)[C@]1(C)O
OUTPUT: > 64 µg/mL

INPUT: Query: MIC; subject: CC[C@H]1OC(=O)[C@H](C)[C@@H](O[C@H]2C[C@@](C)(OC)[C@@H](OC(=O)CCOCCOCCCc3ccc4c(c3)c(=O)c(C(=O)O)cn4CC)[C@H](C)O2)[C@H](C)[C@@H](O[C@@H]2O[C@H](C)C[C@H](N(C)C)[C@H]2O)[C@](C)(O)C[C@@H](C)CN(C)[C@H](C)[C@@H](O)[C@]1(C)O
OUTPUT: ≤ 0.125 µg/mL

New cases:
INPUT: Query: MIC; subject: CCCn1cc(C(=O)O)c(=O)c2cc(CCCOCCOCCC(=O)O[C@H]3[C@H](C)O[C@@H](O[C@H]4[C@H](C)[C@@H](O[C@@H]5O[C@H](C)C[C@H](N(C)C)[C@H]5O)[C@](C)(O)C[C@@H](C)CN(C)[C@H](C)[C@@H](O)[C@](C)(O)[C@@H](CC)OC(=O)[C@@H]4C)C[C@@]3(C)OC)ccc21
OUTPUT: ≤ 0.125 µg/mL

INPUT: Query: MIC; subject: CC[C@H]1OC(=O)[C@H](C)[C@@H](O[C@@H]2O[C@@H](C)C[C@](C)(OC)[C@H]2OC(=O)CCOCCOCCCc2ccc3c(c2)c(=O)c(C(=O)O)cn3CC)[C@H](C)[C@@H](O[C@@H]2O[C@H](C)C[C@H](N(C)C)[C@H]2O)[C@](C)(OC)C[C@@H](C)C(=O)[C@H](C)[C@H]2N(C)C(=O)O[C@]12C
OUTPUT: ≤ 0.125 µg/mL

INPUT: Query: MIC; subject: CC[C@H]1OC(=O)[C@H](C)C(=O)[C@H](C)[C@@H](O[C@@H]2O[C@H](C)C[C@H](N(C)C)[C@H]2O)[C@](C)(OC)C[C@@H](C)C(=O)[C@H](C)[C@H]2N(CCCCn3cnc(-c4cccnc4)c3)C(=O)O[C@]12C
OUTPUT: 0.25 µg/mL

----------
tested on: Staphylococcus aureus; test: Antibacterial activity against efflux-mediated macrolide resistance Staphylococcus aureus PK1 by broth microdilution method; type: functional
metricName: MIC (µg/mL)
# value in µg/mL; strip the unit string

INPUT: Query: MIC; subject: CC[C@H]1OC(=O)[C@H](C)[C@@H](O[C@@H]2O[C@@H](C)C[C@](C)(OC)[C@H]2OC(=O)CCOCCOCCCc2ccc3c(c2)c(=O)c(C(=O)O)cn3CC)[C@H](C)[C@@H](O[C@@H]2O[C@H](C)C[C@H](N(C)C)[C@H]2O)[C@](C)(O)C[C@@H](C)/C(=N\OCOCCOC)[C@H](C)[C@@H](O)[C@]1(C)O
OUTPUT: 1
